Cited source: ChEMBL document CHEMBL1156799

Assay: AUC (0 to 24 hrs) in CD1 mouse at 5 mg/kg, iv
Format: ADME, organism-based
Set-up: time < 24 hr, dose 5 mg/kg, route intravenous
Settings: plasma
value type: AUC(0-t) at 24 h (ng·h/mL)

# compound smiles, endpoint result
measured = [
    ("CN1CCN(Cc2ccc(C(=O)/C=C/c3cccc(/C=C/C(=O)NO)n3)cc2)CC1", 2520),
]

* * *

Assay: AUC (0 to infinity) in CD1 mouse at 5 mg/kg, iv
Assay type: ADME, organism-based
Set-up: time infinity, dose 5 mg/kg, route intravenous
Settings: plasma
value type: AUC(0-inf) (ng·h/mL)

# compound, endpoint result
data = [
    ("O=C(/C=C/c1cccc(S(=O)(=O)Nc2ccccc2)c1)NO [BELINOSTAT]", 431),
    ("CN1CCN(Cc2ccccc2C(=O)/C=C/c2cccc(/C=C/C(=O)NO)c2)CC1", 849),
    ("CN1CCN(Cc2cccc(C(=O)/C=C/c3ccc(/C=C/C(=O)NO)nc3)c2)CC1", 736),
    ("CN1CCN(c2ccccc2C(=O)/C=C/c2ccc(/C=C/C(=O)NO)cc2)CC1", 698),
    ("O=C(CCCCCCC(=O)Nc1ccccc1)NO [VORINOSTAT]", 657),
    ("CN1CCN(c2cccc(C(=O)/C=C/c3cccc(/C=C/C(=O)NO)n3)c2)CC1", 1510),
]

* * *

As shown below, each of these molecules has a reported remaining at 0.5 h, 1 µM value.
Test: Metabolic stability in mouse hepatic microsomes at 1 uM after 30 mins at 37 degC
Details: liver microsomes

# compound smiles, remaining at 0.5 h, 1 µM [%]
records = [
    ("CN1CCN(c2ccc(C(=O)/C=C/c3ccc(/C=C/C(=O)NO)cc3)cc2)CC1", 9.1),
    ("CN1CCN(Cc2ccc(C(=O)/C=C/c3cccc(/C=C/C(=O)NO)n3)cc2)CC1", 46),
    ("CN1CCN(c2ccc(C(=O)/C=C/c3cccc(/C=C/C(=O)NO)c3)cc2)CC1", 5.9),
    ("CN1CCN(c2cccc(C(=O)/C=C/c3ccc(/C=C/C(=O)NO)cc3)c2)CC1", 6.2),
    ("CN1CCN(Cc2ccc(C(=O)/C=C/c3cccc(/C=C/C(=O)NO)c3)cc2)CC1", 33),
    ("O=C(/C=C/c1cccc(/C=C/C(=O)c2ccccc2)c1)NO", 6),
    ("O=C(/C=C/c1ccc(/C=C/C(=O)c2ccccc2)cc1)NO", 2),
    ("O=C(/C=C/c1ccc(/C=C/C(=O)c2ccccc2)cn1)NO", 6),
    ("CN1CCN(c2ccc(C(=O)/C=C/c3ccc(/C=C/C(=O)NO)nc3)cc2)CC1", 3.8),
    ("CN1CCN(Cc2ccccc2C(=O)/C=C/c2cccc(/C=C/C(=O)NO)n2)CC1", 40),
    ("CN1CCN(c2cccc(C(=O)/C=C/c3cccc(/C=C/C(=O)NO)n3)c2)CC1", 29),
    ("CN1CCN(Cc2cccc(C(=O)/C=C/c3cccc(/C=C/C(=O)NO)n3)c2)CC1", 40),
    ("CN1CCN(c2ccccc2C(=O)/C=C/c2cccc(/C=C/C(=O)NO)n2)CC1", 57),
    ("CN1CCN(Cc2cccc(C(=O)/C=C/c3ccc(/C=C/C(=O)NO)cc3)c2)CC1", 17),
    ("CN1CCN(Cc2ccccc2C(=O)/C=C/c2cccc(/C=C/C(=O)NO)c2)CC1", 35),
    ("CN1CCN(c2cccc(C(=O)/C=C/c3ccc(/C=C/C(=O)NO)nc3)c2)CC1", 20),
    ("CN1CCN(c2cccc(C(=O)/C=C/c3cccc(/C=C/C(=O)NO)c3)c2)CC1", 7.2),
    ("CN1CCN(c2ccccc2C(=O)/C=C/c2cccc(/C=C/C(=O)NO)c2)CC1", 44),
    ("CN1CCN(Cc2ccc(C(=O)/C=C/c3ccc(/C=C/C(=O)NO)nc3)cc2)CC1", 56),
    ("O=C(/C=C/c1cc(/C=C/C(=O)c2ccccc2)ccn1)NO", 14),
]

* * *

Assay: Metabolic stability in mouse liver microsomes assessed as half life
Assay type: ADME, Microsome

# compound smiles, unit, half-life
data = [
    ("O=C(/C=C/c1ccc2c(c1)nc(CCc1ccccc1)n2CCN1CCCC1)NO", "min", 3),
    ("O=C(CCCCCCC(=O)Nc1ccccc1)NO", "min", 28),
]

* * *

Assay: Half life in CD1 mouse at 15 mg/kg, po
Type: ADME, organism-based
Parameters: dose 15 mg/kg, route oral
Conditions: in vivo
value type: half-life (h)

# compound smiles, unit, endpoint result
measured = [
    ("CN1CCN(Cc2ccccc2C(=O)/C=C/c2cccc(/C=C/C(=O)NO)c2)CC1", "h", 8.27),
    ("CN1CCN(Cc2ccc(C(=O)/C=C/c3ccc(/C=C/C(=O)NO)nc3)cc2)CC1", "h", 9.7),
    ("CN1CCN(c2ccccc2C(=O)/C=C/c2ccc(/C=C/C(=O)NO)cc2)CC1", "h", 2),
    ("O=C(CCCCCCC(=O)Nc1ccccc1)NO", "h", 0.5),
    ("CN1CCN(Cc2ccccc2C(=O)/C=C/c2ccc(/C=C/C(=O)NO)nc2)CC1", "h", 5.55),
    ("O=C(/C=C/c1cccc(S(=O)(=O)Nc2ccccc2)c1)NO", "h", 1.21),
    ("CN1CCN(c2ccccc2C(=O)/C=C/c2ccc(/C=C/C(=O)NO)nc2)CC1", "h", 2.3),
    ("CN1CCN(Cc2ccc(C(=O)/C=C/c3cccc(/C=C/C(=O)NO)n3)cc2)CC1", "h", 7.3),
    ("Cc1[nH]c2ccccc2c1CCNCc1ccc(/C=C/C(=O)NO)cc1", "h", 1.37),
    ("CN1CCN(c2cccc(C(=O)/C=C/c3cccc(/C=C/C(=O)NO)n3)c2)CC1", "h", 8.5),
    ("CN1CCN(c2ccccc2C(=O)/C=C/c2cccc(/C=C/C(=O)NO)n2)CC1", "h", 8.6),
    ("CN1CCN(Cc2cccc(C(=O)/C=C/c3ccc(/C=C/C(=O)NO)nc3)c2)CC1", "h", 6.7),
]

* * *

Reported remaining at 0.5 h, 1 µM by item:
Test: Metabolic stability in mouse hepatic microsomes at 1 uM after 30 mins at 37 degC
Conditions: liver microsomes

# compound smiles, remaining at 0.5 h, 1 µM / %
records = [
    ("CN1CCN(Cc2cccc(C(=O)/C=C/c3cccc(/C=C/C(=O)NO)c3)c2)CC1", 25),
    ("CN1CCN(Cc2ccc(C(=O)/C=C/c3ccc(/C=C/C(=O)NO)cc3)cc2)CC1", 17),
    ("CN1CCN(Cc2ccccc2C(=O)/C=C/c2ccc(/C=C/C(=O)NO)cc2)CC1", 4.2),
]

* * *

Test: Oral bioavailability in CD1 mouse at 15 mg/kg
Type: ADME, organism-based
Details: in vivo

# compound smiles, unit, bioavailability
measured = [
    ("CN1CCN(Cc2ccccc2C(=O)/C=C/c2cccc(/C=C/C(=O)NO)c2)CC1", "%", 3.1),
    ("CN1CCN(Cc2ccc(C(=O)/C=C/c3cccc(/C=C/C(=O)NO)n3)cc2)CC1", "%", 2.6),
    ("CN1CCN(Cc2ccccc2C(=O)/C=C/c2ccc(/C=C/C(=O)NO)nc2)CC1", "%", 4.5),
    ("CN1CCN(c2ccccc2C(=O)/C=C/c2ccc(/C=C/C(=O)NO)cc2)CC1", "%", 18.1),
    ("Cc1[nH]c2ccccc2c1CCNCc1ccc(/C=C/C(=O)NO)cc1", "%", 4.6),
]

* * *

Experiment: Metabolic stability in human hepatic microsomes at 1 uM after 30 mins at 37 degC
Assay type: ADME
Settings: liver microsomes, read-out: Stability
Threshold 40%. remaining at 0.5 h, 1 µM below it: label 1. remaining at 0.5 h, 1 µM at it or above: label 0.

# compound smiles, label value
rows = [
    ("CN1CCN(Cc2ccc(C(=O)/C=C/c3ccc(/C=C/C(=O)NO)cc3)cc2)CC1", "label 0"),
    ("CN1CCN(c2ccccc2C(=O)/C=C/c2ccc(/C=C/C(=O)NO)nc2)CC1", "label 0"),
    ("CN1CCN(Cc2ccccc2C(=O)/C=C/c2ccc(/C=C/C(=O)NO)nc2)CC1", "label 0"),
    ("CN1CCN(Cc2cccc(C(=O)/C=C/c3ccc(/C=C/C(=O)NO)nc3)c2)CC1", "label 1"),
    ("O=C(/C=C/c1cccc(/C=C/C(=O)c2ccccc2)n1)NO", "label 1"),
    ("CN1CCN(Cc2ccc(C(=O)/C=C/c3cccc(/C=C/C(=O)NO)n3)cc2)CC1", "label 0"),
    ("CN1CCN(c2cccc(C(=O)/C=C/c3cccc(/C=C/C(=O)NO)n3)c2)CC1", "label 1"),
    ("CN1CCN(Cc2cccc(C(=O)/C=C/c3cccc(/C=C/C(=O)NO)n3)c2)CC1", "label 0"),
    ("CN1CCN(Cc2ccccc2C(=O)/C=C/c2cccc(/C=C/C(=O)NO)c2)CC1", "label 0"),
]
